For each record, write down the corresponding EC50.
# Test system: human Pan T cells
# procedure-text: Human Pan T cell IL-2 ELISA
# Type: cell-based
# conditions-used: Homo sapiens, T-cell, 48 h, Anti-CD3 and Anti-CD28, supernatant IL-2 ELISA, read-out: IL-2 release, EC50

// below: answered compounds
COc1cccn2c(-c3cc4c(c5c(=O)[nH]ccc35)Nc3ccc(N5CCOCC5)cc3C4(C)C)cnc12 [Example 3] : 38 nM
CC1(O)CCN(c2ccc3c(c2)C(C)(C)c2cc(-c4cnc5nc(C(F)F)ccn45)c4c(c2N3)C(=O)NC4)CC1 [Example 256] : 16 nM
CC1(C)c2cc(N3CCOCC3)ccc2Nc2c1cc(-c1cnn3ccccc13)c1c2C(=O)NC1 [Example 37] : 2.27 nM
CCOC1CCCn2c(-c3cc4c(c5c3CNC5=O)Nc3ccc(N5CCOCC5)cc3C4(C)C)cnc21 (single isomer, unassigned) [Example 136] : 24.5 nM
Cn1ccc2c(-c3cc4c(c5c3CNC5=O)Nc3ccc(N5CCOCC5)cc3C4(C)C)ccnc21 [Example 42] : 14.2 nM

Give one value of EC50 per listed compound.
1. CC1(C)c2cc(N3CCOC(C(C)(C)O)C3)ccc2Nc2c1cc(-c1cnn3cc(Cl)ccc13)c1c2C(=O)NC1 (single isomer, unassigned) [Example 154]
2. CC1(C)c2cc(N3CCOC(C(C)(C)O)C3)ccc2Nc2c1cc(-c1cnc3n1CCCCC3)c1c2C(=O)NC1 (stereo not shown) [Example 123]

Result:
7.35 nM
20.3 nM

---

# tested-on: UniProt Q92918
# procedure-text: HPK1 HTRF kinase assay
# Type: biochemical
# conditions-used: 1000 µM ATP; 50 nM HPK1; STK1 substrate; read-out: HPK1, IC50
pIC50: −log10 of the molar value.
Label scheme for pIC50: lower than 8 is not fulfilled, 8 and above is fulfilled.

Example cases with answers are listed next.
CC1(C)c2cc(N3CCOCC3)ccc2Nc2c1cc(-c1cncc(OCC3COC3)c1)c1c2C(=O)NC1 : not fulfilled
CC1(C)c2cc(N3CCOCC3)ccc2Nc2c1cc(-c1cnn3c1OCCC3)c1c2C(=O)NC1 : fulfilled
CC1(C)c2cc(CN3CCN(CC4CC4)CC3)ccc2Nc2c1cc(-c1cnn3cccnc13)c1c2C(=O)NC1 : fulfilled

Kindly review the next molecule as well.
Q: Say whether COc1ccnn2c(-c3cc4c(c5c3CNC5=O)Nc3ccc(N5CCOCC5)cc3C4(C)C)cnc12 shows pIC50 of 8 or more.
Result: not fulfilled

---

# tested-on: HPK1 (Homo sapiens)
# Sequence (Q92918 whole entry, species assumed): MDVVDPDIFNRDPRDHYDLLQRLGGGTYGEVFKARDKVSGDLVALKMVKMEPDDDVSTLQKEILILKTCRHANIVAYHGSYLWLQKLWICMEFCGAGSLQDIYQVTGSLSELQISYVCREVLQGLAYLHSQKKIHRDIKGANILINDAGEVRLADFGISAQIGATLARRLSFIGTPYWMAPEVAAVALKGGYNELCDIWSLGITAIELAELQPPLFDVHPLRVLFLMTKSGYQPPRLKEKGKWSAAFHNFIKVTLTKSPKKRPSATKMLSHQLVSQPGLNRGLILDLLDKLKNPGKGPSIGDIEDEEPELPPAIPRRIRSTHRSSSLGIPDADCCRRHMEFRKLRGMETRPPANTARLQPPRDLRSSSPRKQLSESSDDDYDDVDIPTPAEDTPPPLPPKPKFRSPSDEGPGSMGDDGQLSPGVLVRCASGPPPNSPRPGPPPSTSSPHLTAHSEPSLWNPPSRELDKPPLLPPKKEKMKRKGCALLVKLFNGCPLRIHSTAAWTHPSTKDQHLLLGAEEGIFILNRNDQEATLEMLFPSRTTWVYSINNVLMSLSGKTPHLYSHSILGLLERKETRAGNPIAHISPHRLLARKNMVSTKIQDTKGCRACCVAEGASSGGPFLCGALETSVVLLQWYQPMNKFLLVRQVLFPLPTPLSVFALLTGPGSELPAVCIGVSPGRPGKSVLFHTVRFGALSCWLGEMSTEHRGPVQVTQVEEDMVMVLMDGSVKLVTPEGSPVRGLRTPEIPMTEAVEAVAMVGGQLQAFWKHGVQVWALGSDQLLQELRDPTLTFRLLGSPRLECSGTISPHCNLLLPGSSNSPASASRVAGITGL
# procedure-text: HPK1 HTRF kinase assay
# Format: biochemical
# conditions-used: 1000 µM ATP; 50 nM HPK1; STK1 substrate; read-out: HPK1, IC50
Categorized via IC50: lower band = under 6 nM, central band = from 6 nM up to 10 nM, upper band = 10 nM and over

Example cases with answers are listed next.
COc1cccn2c(-c3cc4c(c5c3CNC5=O)Nc3ccc(N5CCOCC5)cc3C4(C)C)nnc12 [Example 75] : lower band
COc1cccn2c(-c3cc4c(c5c3CNC5=O)Nc3ccc(N5CCOCC5)nc3C4(C)C)cnc12 [Example 20] : lower band
COc1cccc2c(-c3cc4c(c5c3CNC5=O)Nc3cnc(N5CCOCC5)cc3C4(C)C)cnn12 [Example 27] : upper band
CC1(C)c2cc(C3CCNCC3)ccc2Nc2c1cc(-c1cnn3cccnc13)c1c2C(=O)NC1 [Example 83] : lower band
COC1CCCn2c(-c3cc4c(c5c3CNC5=O)Nc3ccc(N5CCOCC5)cc3C4(C)C)cnc21 (single isomer, unassigned) [Example 90] : central band
CC1(C)c2cc(N3CCOC(C(C)(C)O)C3)ccc2Nc2c1cc(-c1cnc3cccnn13)c1c2C(=O)NC1 (stereo not drawn) [Example 19] : central band

Q: Lab note: which band did COc1cncc2c(-c3cc4c(c5c3CNC5=O)Nc3ccc(N5CCOCC5)cc3C4(C)C)cnn12 [Example 76] land in?
Result: central band

Q: Lab note: which band did COc1ccnn2c(-c3cc4c(c5c3CNC5=O)Nc3ccc(N5CCOC(C(C)(C)O)C5)cc3C4(C)C)cnc12 (stereo not drawn) [Example 24] land in?
Result: upper band

Q: Lab note: which band did Cn1ccc(-c2cc3c(c4c2CNC4=O)Nc2ccc(N4CCOC(C(C)(C)O)C4)cc2C3(C)C)cc1=O (stereo not drawn) [Example 32] land in?
Result: upper band

Q: Lab note: which band did COc1cccn2c(-c3cc4c(c5c3CNC5=O)Nc3ccc(N5CCOCC5)cc3C4(C)C)cnc12 [Example 10] land in?
Result: central band

Q: Lab note: which band did CC1(C)c2cc(N3CCOCC3)c(F)cc2Nc2c1cc(-c1cnn3cccnc13)c1c2C(=O)NC1 [Example 59] land in?
Result: central band

Q: Lab note: which band did Cn1c(-c2cc3c(c4c2CNC4=O)Nc2ccc(N4CCOCC4)cc2C3(C)C)cnc1C1CC1 [Example 68] land in?
Result: upper band

Q: Lab note: which band did CC1(C)c2cc(NC(=O)CC3CC3)ccc2Nc2c1cc(-c1cnn3cccnc13)c1c2C(=O)NC1 [Example 56] land in?
Result: upper band

---

# Test system: human Pan T cells
# procedure-text: Human Pan T cell IL-2 ELISA
# Type: cell-based
# conditions-used: Homo sapiens, T-cell, 48 h, Anti-CD3 and Anti-CD28, supernatant IL-2 ELISA, read-out: IL-2 release, EC50
measure-name: log10 of EC50 (log10 of the value in nM)
The figures below represent log10 of EC50, where EC50 is stated in nM.

// below: answered molecules
CC1(C)c2cc(N3CCOCC3)ccc2Nc2c1cc(-c1cnc3nc(C(F)F)ccn13)c1c2C(=O)NCC1 : 1.64
CCOc1ccc2c(-c3cc4c(c5c3CNC5=O)Nc3ccc(N5CCOC(C(C)(C)O)C5)cc3C4(C)C)cnn2c1 (single isomer, unassigned) : 1.84

Give one value of log10 of EC50 per listed molecule.
1. COc1cc2c(cc1N1CCOCC1)C(C)(C)c1cc(-c3cnc4n3CCCC4OC)c3c(c1N2)C(=O)NC3 (single isomer, unassigned)
2. Cn1ccc2c(-c3cc4c(c5c3CNC5=O)Nc3ccc(N5CCOCC5)cc3C4(C)C)cncc21

Result:
[1.30, 0.67]

Give one value of log10 of EC50 per listed molecule.
1. Cn1c(-c2cc3c(c4c2CNC4=O)Nc2ccc(N4CCOC(C(C)(C)O)C4)cc2C3(C)C)cnc1C1CC1 (stereo not drawn)
2. COC1CCCn2c(-c3nc4c(c5c3CNC5=O)Nc3ccc(N5CCOCC5)cc3C4(C)C)cnc21 (single isomer, unassigned)
3. Cc1c(-c2cc3c(c4c2CNC4=O)Nc2ccc(N4CCOC(C(C)(C)O)C4)cc2C3(C)C)cnc2c1NCCO2 (stereo not drawn)
4. CC1(C)c2cc(N3CCOCC3)ccc2Nc2c1cc(-c1cnn3c(C#N)cccc13)c1c2C(=O)NC1

Result:
[1.06, 2.23, 0.81, 0.57]

---

# System: human Pan T cells
# procedure-text: Human Pan T cell IL-2 ELISA
# Assay type: cell-based
# conditions-used: Homo sapiens, T-cell, 48 h, Anti-CD3 and Anti-CD28, supernatant IL-2 ELISA, read-out: IL-2 release, EC50
measure-name: EC50 (nM)
Numbers only, in nM.

// below: answered compounds
COc1nccn2c(-c3cc4c(c5c3CNC5=O)Nc3ccc(N5CCN6CCOCC6C5)cc3C4(C)C)cnc12 (stereo not shown) [Example 194] : 4.3
COc1nccn2c(-c3cc4c(c5c3CNC5=O)Nc3ccc(N5CCOCC5)cc3C4(C)C)cnc12 [Example 63] : 4.98
CCOc1nccn2c(-c3cc4c(c5c3CNC5=O)Nc3ccc(N5CCOCC5)cc3C4(C)C)cnc12 [Example 160] : 12.6

Q: Fill in the blank: the reported EC50 of CC1(C)c2cc(N3CCO[C@@H](C(C)(C)O)C3)ccc2Nc2c1cc(-c1cnn3cc(C(F)F)ccc13)c1c2C(=O)NC1 [Example 169] is ____.
Result: 6.4

---

# System: human Pan T cells
# procedure-text: Human Pan T cell IL-2 ELISA
# Assay type: cell-based
# conditions-used: Homo sapiens, T-cell, 48 h, Anti-CD3 and Anti-CD28, supernatant IL-2 ELISA, read-out: IL-2 release, EC50
# Method: A compound was dissolved in DMSO to 10 mM, and then diluted three-fold with DMSO to 9 dosages in a 96-well plate. […] The assay was conducted in a 96-well plate. […] On the second day of the assay, human Pan T cells were recovered, centrifuged and counted. […] The signal value of light absorption was converted into a multiple. […] The average value of control wells refers to the value measured in wells with DMSO added. EC50 values were calculated by XLFit (version 5.3.1.3) in Excel. […]
measure-name: pEC50
Answers are plain numbers, as −log10 of the molar value.

// below: answered compounds
Cc1cc(-c2cc3c(c4c2CNC4=O)Nc2ccc(N4CCOCC4)cc2C3(C)C)cc(=O)[nH]1 : 7.45
Cc1c(-c2cc3c(c4c2CNC4=O)Nc2ccc(N4CCOCC4)cc2C3(C)C)cnc2c1NCCO2 : 8.19
COc1cccc2c(-c3cc4c(c5c3CNC5=O)Nc3ncc(N5CCOCC5)cc3C4(C)C)cnn12 : 8.08

Give one value of pEC50 per listed compound.
1. Cn1c(-c2cc3c(c4c2CNC4=O)Nc2ccc(N4CCOC(C(C)(C)O)C4)cc2C3(C)C)cnc1C1CCOC1 (single isomer, unassigned)
2. CC1(C)c2cc(N3CCOCC3)ccc2Nc2c1cc(-c1cncc(OCC3COC3)c1)c1c2C(=O)NC1

Result:
7.37
7.00

Give one value of pEC50 per listed compound.
1. COc1cccn2c(-c3cc4c(c5c3CNC5=O)Nc3ccc(N5CCOCC5)nc3C4(C)C)cnc12
2. CC1(C)c2cc(N3CCOCC3)ccc2Nc2c1cc(-c1cnc3c(C#N)nccn13)c1c2C(=O)NC1
3. CC1(C)c2cc(N3CCOCC3)ccc2Nc2c1cc(-c1cnc3c(F)cccn13)c1c2C(=O)NC1
4. COC1CCCn2c(-c3cc4c(c5c3CNC5=O)Nc3ccc(N5CCOCC5)cc3C4(C)C)cnc21 (single isomer, unassigned) [Example 90]
5. COC1CCCn2c(-c3cc4c(c5c3CNC5=O)Nc3ccc(N5CCOCC5)nc3C4(C)C)cnc21 (single isomer, unassigned)
6. CC1(C)c2cc(N3CCOC(C(C)(C)O)C3)ccc2Nc2c1cc(-c1cnc3cnccn13)c1c2C(=O)NC1 (stereo not shown)

Result:
1. 7.95
2. 7.72
3. 8.45
4. 8.20
5. 7.48
6. 8.33

Reference source: patent EP4567031A1
